src = patent US11718604B2

Test system: BRSNN: oilseed rape, canola (Brassica napus)
TEST DETAILS: Post-emergent herbicidal test, oilseed rape
Format: in vivo
RUN PARAMETERS: post-emergence, 336 h, 140 g ai/ha, 14 days after application, read-out: Visual Growth Reduction (%) 14 Days After Application BRSNN
Answer each item with its documented pest or weed control at 140 g/ha.
Just the number please, in %, no unit attached.

Would you kindly share the measured pest or weed control at 140 g/ha for COC(=O)c1nc(-c2ccc(I)c3c2OC(F)(F)O3)c(F)c(N)c1Cl ?
70

Subsequent entry: COC(=O)c1nc(-c2ccc(F)c3c2OC(F)(F)O3)c(F)c(N)c1Cl
85

Subsequent entry: Nc1c(F)c(-c2ccc(Br)c3c2OC(F)(F)O3)nc(C(=O)O)c1Cl
90

Subsequent entry: Nc1c(F)c(-c2ccc(F)c3c2OC(F)(F)O3)nc(C(=O)O)c1Cl
97

Subsequent entry: COC(=O)c1nc(-c2ccc(F)c3c2OCO3)c(F)c(N)c1Cl
100

Subsequent entry: Nc1c(F)c(-c2ccc(Cl)c3c2OC(F)(F)O3)nc(C(=O)O)c1Cl
100

Subsequent entry: Nc1c(F)c(-c2ccc(Cl)c3c2OCO3)nc(C(=O)OCc2ccccc2)c1Cl
100

Subsequent entry: COC(=O)c1nc(-c2ccc(Cl)c3c2OC(F)(F)O3)c(F)c(N)c1Cl
97

* * *

System: VIOTR: wild violet (Viola tricolor)
TEST DETAILS: Post-emergent herbicidal test, wild violet
Assay type: in vivo
RUN PARAMETERS: post-emergence, 336 h, 17.5 g ai/ha, 14 days after application, read-out: Visual Growth Reduction (%) 14 Days After Application VIOTR
MEASURED ATTRIBUTE: pest or weed control at 17.5 g/ha (%)
Just the number please, in %, no unit attached.

Would you kindly share the measured pest or weed control at 17.5 g/ha for COC(=O)c1nc(-c2ccc(Cl)c3c2OC(F)(F)O3)c(Cl)c(N)c1Cl ?
0

Subsequent entry: C#CCOC(=O)c1nc(-c2ccc(Cl)c3c2OCO3)c(F)c(N)c1Cl
65

Subsequent entry: Nc1c(F)c(-c2ccc(Br)c3c2OC(F)(F)O3)nc(C(=O)O)c1Cl
0

Subsequent entry: Nc1c(F)c(-c2ccc(F)c3c2OC(F)(F)O3)nc(C(=O)O)c1Cl
0

Subsequent entry: COC(=O)c1nc(-c2ccc(Cl)c3c2OC(F)(F)O3)c(F)c(N)c1Cl
3

Subsequent entry: Nc1c(F)c(-c2ccc(Cl)c3c2OCO3)nc(C(=O)O)c1Cl
40

Subsequent entry: COC(=O)c1nc(-c2ccc(F)c3c2OCO3)c(F)c(N)c1Cl
30

* * *

Answer each item with its documented pest or weed control at 35 g/ha.
Tested on: VIOTR: wild violet (Viola tricolor)
TEST DETAILS: Post-emergent herbicidal test, wild violet
Format: in vivo
RUN PARAMETERS: post-emergence, 336 h, 35 g ai/ha, 14 days after application, read-out: Visual Growth Reduction (%) 14 Days After Application VIOTR
Description: Post-Emergent Test: Seeds or nutlets of the desired test plant species were planted in Sun Gro Metro-Mix® 360 planting mixture, which typically has a pH of 6.0 to 6.8 and an organic matter content of about 30 percent, in plastic pots with a surface area of 64 square centimeters (cm^2). When required to ensure good germination and healthy plants, a fungicide treatment and/or other chemical or physical treatment was applied. […]
Just the number please, in %, no unit attached.

Would you kindly share the measured pest or weed control at 35 g/ha for COC(=O)c1nc(-c2cccc3c2OC(F)(F)O3)c(F)c(N)c1Cl [Compound 4] ?
0

Subsequent entry: Nc1c(F)c(-c2ccc(Cl)c3c2OCO3)nc(C(=O)O)c1Cl [Compound 1]
60

Subsequent entry: C#CCOC(=O)c1nc(-c2ccc(Cl)c3c2OCO3)c(F)c(N)c1Cl [Compound 1C]
65

Subsequent entry: Nc1c(F)c(-c2ccc(F)c3c2OC(F)(F)O3)nc(C(=O)O)c1Cl [Compound 8]
5

Subsequent entry: COC(=O)c1nc(-c2ccc(I)c3c2OC(F)(F)O3)c(F)c(N)c1Cl [Compound 10]
0

Subsequent entry: Nc1c(F)c(-c2cccc3c2OCO3)nc(C(=O)O)c1Cl [Compound 3]
15

Subsequent entry: COC(=O)c1nc(-c2ccc(Cl)c3c2OC(F)(F)O3)c(Cl)c(N)c1Cl [Compound 13]
0

Subsequent entry: COC(=O)c1nc(-c2cccc3c2OCO3)c(F)c(N)c1Cl [Compound 2]
0

Subsequent entry: Nc1c(F)c(-c2ccc(Br)c3c2OC(F)(F)O3)nc(C(=O)O)c1Cl [Compound 11]
0

Subsequent entry: COC(=O)c1nc(-c2ccc(F)c3c2OCO3)c(F)c(N)c1Cl [Compound 15]
60
